Entry source: ChEMBL document CHEMBL5291721

What follows is a collection of AC50 values obtained with 5-hydroxytryptamine receptor 1A (Homo sapiens, UniProt P08908).
Sequence (P08908 whole entry): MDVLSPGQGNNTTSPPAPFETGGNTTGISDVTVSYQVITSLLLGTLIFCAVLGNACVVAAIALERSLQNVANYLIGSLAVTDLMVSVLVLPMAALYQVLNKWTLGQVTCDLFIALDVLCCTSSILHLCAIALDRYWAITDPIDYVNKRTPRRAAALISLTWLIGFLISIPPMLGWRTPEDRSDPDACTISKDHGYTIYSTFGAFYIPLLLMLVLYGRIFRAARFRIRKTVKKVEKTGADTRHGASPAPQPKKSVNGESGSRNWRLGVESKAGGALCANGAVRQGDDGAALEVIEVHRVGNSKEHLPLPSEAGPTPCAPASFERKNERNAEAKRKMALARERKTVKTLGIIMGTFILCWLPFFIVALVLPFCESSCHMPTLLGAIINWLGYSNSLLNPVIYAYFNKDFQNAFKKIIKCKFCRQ

# count of solved cases: 5
compound="CCC(=O)O[C@@H](O[P@](=O)(CCCCc1ccccc1)CC(=O)N1C[C@H](C2CCCCC2)C[C@H]1C(=O)O)C(C)C [FOSINOPRIL]" measured_attribute=AC50 obs_value="> 30 µM"
compound="Cn1c(=O)c2c(ncn2CC(O)CO)n(C)c1=O (stereo unspecified) [DYPHYLLINE]" measured_attribute=AC50 obs_value="> 30 µM"
compound="CCCCCCCCNC(C)C(O)c1ccc(SC(C)C)cc1 (stereo unspecified) [SULOCTIDIL]" measured_attribute=AC50 obs_value="0.216 µM"
compound="CC(=O)O[C@H]1C[C@H](O[C@H]2[C@@H](O)C[C@H](O[C@H]3[C@@H](O)C[C@H](O[C@H]4CC[C@@]5(C)[C@H](CC[C@@H]6[C@@H]5C[C@@H](O)[C@]5(C)[C@@H](C7=CC(=O)OC7)CC[C@]65O)C4)O[C@@H]3C)O[C@@H]2C)O[C@H](C)[C@H]1O[C@@H]1O[C@H](CO)[C@@H](O)[C@H](O)[C@H]1O [LANATOSIDE C]" measured_attribute=AC50 obs_value="> 30 µM"
compound="CCn1cc(C(=O)O)c(=O)c2cc(F)c(N3CCNCC3)nc21 [ENOXACIN]" measured_attribute=AC50 obs_value="> 30 µM"

# ---- query compound ----
Exam item: Bench note: what AC50 did NC(=O)NCCC[C@H](N)C(=O)O [L-CITRULLINE] show?
Marked response: > 30 µM
